# EXPERIMENTAL TARGET: von Willebrand factor full length (Homo sapiens, UniProt P04275 SEQ:764-2813)
# MEASUREMENT PROTOCOL: filter; 43% bound at 100 nM
# PROTOCOL CONDITIONS: tags: Calbiochem 681300
Kd: recorded values
Quick note: give the figure in nM, leave out the unit.

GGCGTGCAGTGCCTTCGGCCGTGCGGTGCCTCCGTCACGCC (ssDNA, 2'-OMe at 28; 3'-idT) [ARC1221] = 1
GGCGTGCAGTGCCTTCGGCCGTGCGGTGCCTCCGUCACGCC (ssDNA, 2'-OMe at 35 (mU); 3'-idT) [ARC1228] = 2
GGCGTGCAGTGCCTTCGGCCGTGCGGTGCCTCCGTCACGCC (ssDNA, 2'-OMe at 20; 3'-idT) [ARC1213] = 6

Turning to the following binder.
Exercise: Please report the recorded Kd for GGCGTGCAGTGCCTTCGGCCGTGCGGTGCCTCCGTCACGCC (ssDNA, 2'-OMe at 11,17,18; 3'-idT) [ARC1238] .
Solution: 2
